Attribution: patent US20260217708A1

Listed here are compounds together with their documented IC50.
Molecular target: system Xc^− (Homo sapiens, UniProt Q9UPY5)
Sequence (Q9UPY5 whole entry): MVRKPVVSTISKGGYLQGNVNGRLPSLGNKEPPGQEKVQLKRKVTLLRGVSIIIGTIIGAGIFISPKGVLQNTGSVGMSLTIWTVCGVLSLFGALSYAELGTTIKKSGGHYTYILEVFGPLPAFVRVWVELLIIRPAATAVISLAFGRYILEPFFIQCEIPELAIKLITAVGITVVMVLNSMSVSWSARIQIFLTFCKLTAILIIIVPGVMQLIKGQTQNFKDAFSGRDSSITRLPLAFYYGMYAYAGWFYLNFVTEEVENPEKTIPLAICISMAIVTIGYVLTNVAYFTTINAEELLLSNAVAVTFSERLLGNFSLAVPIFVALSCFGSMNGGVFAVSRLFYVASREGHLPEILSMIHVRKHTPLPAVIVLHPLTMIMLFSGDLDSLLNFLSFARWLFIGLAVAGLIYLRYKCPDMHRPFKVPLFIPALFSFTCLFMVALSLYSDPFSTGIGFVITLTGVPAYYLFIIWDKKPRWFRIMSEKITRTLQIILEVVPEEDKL
Sequence (P08195 102-630 partner): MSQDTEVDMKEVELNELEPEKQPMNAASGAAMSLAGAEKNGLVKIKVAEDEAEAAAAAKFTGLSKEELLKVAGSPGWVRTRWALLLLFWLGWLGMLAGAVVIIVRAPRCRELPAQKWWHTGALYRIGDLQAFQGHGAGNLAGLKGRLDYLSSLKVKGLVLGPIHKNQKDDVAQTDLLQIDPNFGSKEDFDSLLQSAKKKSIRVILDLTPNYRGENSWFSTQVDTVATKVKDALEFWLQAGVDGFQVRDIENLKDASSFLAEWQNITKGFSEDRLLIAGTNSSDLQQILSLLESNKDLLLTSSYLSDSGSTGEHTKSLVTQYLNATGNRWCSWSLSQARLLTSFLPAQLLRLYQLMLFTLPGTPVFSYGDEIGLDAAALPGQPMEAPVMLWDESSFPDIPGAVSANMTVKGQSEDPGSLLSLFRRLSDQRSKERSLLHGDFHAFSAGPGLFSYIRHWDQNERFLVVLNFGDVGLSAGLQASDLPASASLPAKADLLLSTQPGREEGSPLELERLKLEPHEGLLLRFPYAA
Experiment: Cystine-induced glutamate release assay
Type: cell-based
Parameters: endogenous in cells; host or cells: H4 cells
Conditions: H4 cells, sodium-free HEPES buffer, 50 μM L-Cystine, 2 hours, Amplex Red glutamate readout; read-out: pIC50 Cystine-induced glutamate release assay (converted)
Experimental: The effect of compounds of Formula (I) on the system Xc^− functionality was examined in two independent cell assays: (i) measurement of cystine-induced glutamate release; and (ii) measurement of [^14C]L-Cystine uptake. […] In this assay, the medium is devoid of sodium to prevent the transport of glutamate by sodium-dependent excitatory amino acid transporters (EAATs). […] Fluorescence intensity was measured by EnVision microplate reader (PerkinElmer).

Cc1cc2c(c(Cl)n1)-c1ccccc1CC(=O)N2CC(=O)Nc1ccc(Cl)c(F)c1 [#50]    39.8 to 100 nM
COc1nc(C)cc2c1-c1ccnn1CC(=O)N2CC(=O)Nc1ccc(C(F)(F)F)cc1 [#99]    39.8 to 100 nM
Cc1cc2c(cn1)-c1cccnc1C(C)C(=O)N2CC(=O)Nc1ccc(Cl)c(F)c1 (single isomer, unassigned) [#251]    < 15.8 nM
Cc1cc2c(c(F)n1)-c1cccnc1C(C)C(=O)N2CC(=O)Nc1ccc(C(F)(F)F)cc1 (stereo not shown) [#84]    15.8 to 39.8 nM
Cc1cc2c(c(F)n1)-c1ccnn1C(C)C(=O)N2CC(=O)Nc1ccc(C(F)(F)F)cc1 (stereo not shown) [#111]    100 to 501 nM
Cc1cc2c(c(F)n1)-c1cccnc1C(C)(F)C(=O)N2CC(=O)Nc1ccc(C(F)(F)F)cc1 (stereo not shown) [#89]    39.8 to 100 nM

Lookup: State its IC50 on system Xc^− (Homo sapiens, UniProt Q9UPY5): CC1C(=O)N(CC(=O)Nc2ccc(C(F)F)cc2)c2cc(C#N)cc(F)c2-c2cccnc21 (single isomer, unassigned) [#309]
Found: 15.8 to 39.8 nM

Lookup: Moving on to Cc1cc2c(cc1C)N(CC(=O)Nc1ccc(C(F)(F)F)cc1)C(=O)Cc1ccc(Cl)nc1-2 [#10]
Found: 100 to 501 nM

Lookup: Moving on to CN1CCN(c2cc3c(cn2)-c2ccccc2CC(=O)N3CC(=O)Nc2ccc(C(F)(F)F)cc2)CC1=O [#46]
Found: 39.8 to 100 nM

Lookup: Moving on to CC1C(=O)N(CC(=O)Nc2ccc(C(F)F)cc2)c2cc(C#N)ccc2-c2cccnc21 (single isomer, unassigned) [#312]
Found: < 15.8 nM

Lookup: Moving on to O=C(CN1C(=O)Cn2nccc2-c2cnc(Cl)cc21)Nc1ccc(C(F)(F)F)cc1 [#37]
Found: 100 to 501 nM
